Tested on: RXF 393 renal
testProtocol: NCI-60 one-dose screen, 48 h
recordedConditions: 10 µM unless noted
Experimental: Cells are grown in 96 well plates and exposed to the test compound for 48 hours. Compounds are tested at a single concentration, which is 10^-5 M for most compounds. The reported endpoint is percent growth (GI% or GIPRCNT), where numbers from 0 - 100% represent growth inhibition, and numbers from -100% - 0 represent cell death. For example, a value of 40 represents 60% growth inhibition. A value of 0 means no net growth occurred over the course of the experiment. […]
About 83,000 compounds went through this panel and 20% of them were active in at least one assay; those are over-represented in the sample as a whole. The source made the active and inactive calls. Rule for the calls: active = growth percent below 10; inactive = the rest.
Outcome codes: Yes = active, No = inactive

molecule	labelValue
CCN(CC)CCn1c2ccc(OC)cc2c2sc3cc(OC)ccc3c(=O)c21	No
Cc1cccc(/C=C2\CN(C(=O)OC(C)(C)C)C/C(=C\c3cccc(C)c3)C2=O)c1	No
O=C(N(c1ccccc1)c1ccccc1)n1cc(I)c2nc(Cl)nc(Cl)c21	No
C=C(C)[C@@H]1CC[C@]2(C(=O)O)CC[C@]3(C)[C@H](CC[C@@H]4[C@@]5(C)CCC(NC(=O)c6cccc(OC(C)=O)c6OC(C)=O)C(C)(C)[C@@H]5CC[C@]43C)[C@@H]12 (stereo not given in full)	Yes
O=CN1N=C(c2cccc(Nc3ccnc4cc(Cl)ccc34)c2)CC1c1ccccc1 (stereo not given)	Yes
C=CCc1c(O)c(C(=O)/C=C/c2ccccc2)c(OC)c2ccoc12	Yes
CC1(C)CC(=O)C2=C(C1)N(c1ccc(OC(F)(F)F)cc1)C(N)=C(C#N)C2c1ccc(Br)cc1F (stereo not given)	No
COc1cc(-c2nc3sccn3c2-c2ccnc(NCCNS(=O)(=O)c3ccccc3)n2)ccc1F	No
Cc1nc2sc(C(=O)Nc3ccc(Br)cc3)c(N)c2cc1C(O)c1ccccc1 (stereo not given)	No
COc1ccc(NC2=C(I)C(=O)c3ncccc3C2=O)cc1	No
O=C1/C(=C/c2ccccc2Br)COc2ccc(O)cc21	No
Nc1nc2ccc(-c3nc4ccc5[nH]ncc5c4c4c3CCCC4)cc2s1	No
O=C1/C(=C\c2ccc3nccnc3c2)SC(=S)N1CCc1ccc(O)cc1	No
Cn1cc(-c2csc(-c3cn(C(=O)OC(C)(C)C)c4ccc(Br)cc34)n2)c2ccnc(Cl)c21	No
CS(=O)(=O)Nc1cc(-c2ccc3ncnc(Nc4ccc5c(cnn5Cc5cccc(F)c5)c4)c3c2)cnc1Cl	Yes
CC(=O)O[C@H]1CC2CCC3C(CC[C@@]4(C)C3C[C@H]([N+]3(C)CCCCC3)[C@@H]4OC(C)=O)[C@@]2(C)C[C@@H]1N1CCCCC1 (stereo not given in full)	No
O=c1c2ccccc2n2cnc3ccc(Cl)c1c32	No
C/C(Cc1ccc(Cl)cc1)=C(\c1ccc(O)cc1)c1ccc(Cl)cc1	No
COC1/C=C/OC2(C)Oc3c(C)c(O)c4c(O)c(c(/C=N/Nc5ccc([N+](=O)[O-])cc5[N+](=O)[O-])c(O)c4c3C2=O)NC(=O)C(C)=C/C=C/C(C)C(O)C(C)C(O)C(C)C(OC(C)=O)C1C (stereo not given)	Yes
COc1ccc(C(=O)N2c3ccccc3Sc3ccccc32)c(OC)c1	Yes
N#Cc1c(-c2ccccc2)cc(-c2ccc(Nc3nc(Nc4ccc(Cl)cc4)nc(Nc4ccc(Cl)cc4)n3)cc2)nc1N	Yes
CN(C)CCNC(=O)c1ccc(-c2nc3ccc4[nH]ncc4c3c3c2C2CCC3C2)cc1 (stereo not given)	Yes
CN(/C(N)=N/N=C/c1c2ccccc2cc2ccccc12)C1CCCCC1	No
CCC(C(=O)[C@@H](C)[C@@H](O)[C@H](C)[C@@H]1O[C@@H]([C@@H](CC)C(=O)ONC(=O)c2ccccc2)CC[C@@H]1C)[C@H]1O[C@]2(C=CC(=O)[C@]3(CC[C@@](C)([C@H]4CC[C@](O)(CC)[C@H](C)O4)O3)O2)[C@H](C)C[C@@H]1C (stereo not given in full)	Yes
O=C(N/N=C/c1ccc(Cl)cc1)c1[nH]c2ccc(Cl)cc2c1-c1ccccc1	No
O=C(Cn1cc(CSc2nc3ccccc3o2)nn1)Nc1ccc(F)cc1F	No
COC(=O)CC[C@@H]1O[C@@H](c2cccc(C(F)(F)F)c2)[C@@H](O)[C@H]1O	No
Nc1ncnc2c1C(c1ccc(Br)cc1)c1sc3c(F)cccc3c1O2 (stereo not given)	No
CCN1CCN(C(=O)[C@]23CCC(C)(C)C[C@@H]2C2=CC[C@@H]4[C@@]5(C)CCC(=O)C(C)(C)[C@@H]5CC[C@@]4(C)[C@]2(C)CC3)CC1	No
O=C(Nc1cccc(Cl)c1)Nc1cccc(Cn2c(=O)[nH]c3ccc(Oc4ncccn4)cc3c2=O)c1	No
CCOC(=O)c1c(C(=O)c2cn(C)c3ccc(Br)cc23)c(-c2cn(C)c3ccc(Br)cc23)n(NC(=O)OC(C)(C)C)c1C	No
CCOC(=O)c1cc(C)n(-c2ccc(C(=O)O)cc2)c1C	No
CN(c1cc2ncc(=O)[nH]c2cc1NC(N)=NCc1ccc(Cl)cc1)C1CCCCC1	No
COCCn1cc(-c2nc(-c3cc4cccnc4[nH]3)cs2)c2cc(OC)ccc21	No
COC1=CC(c2ccc[nH]2)=N/C1=C\c1[nH]c(C)c(C)c1CCC(=O)OCc1ccccc1	Yes

* * *

Tested on: SR leukemia
testProtocol: NCI-60 one-dose screen, 48 h (100 = growth as untreated, 0 = no growth, -100 = all killed)
recordedConditions: 10 µM unless noted
This is part of a sample that, as a whole, favours compounds with a hit. Of some 83,000 tested, about 20% had one in any assay.

compound	growth / %
CCCCn1c(=O)[nH]c(N)c([C@@H]2c3c([nH]c(=O)n(CCCC)c3=O)Oc3ccc4ccccc4c32)c1=O	9.35
Cn1ccnc1C(=O)/C=C/c1ccc(C(=O)Nc2ccc(Cl)cc2)cc1	-8.67
Cc1ccc2c(n1)C(=O)C(Br)=C(C1CCCC1)C2=O	31.1
CCc1ncnc2c1ccn2C(C)c1ccc(OC)c(F)c1 (stereo not given)	16.5
CCN1C(=S)N(c2ccccc2)C2NC(=S)N(/N=C/C=C/c3ccccc3OC)C21 (stereo not given)	8.81
COC(=O)Nc1nc2ccc(S(=O)c3ccccc3)cc2[nH]1 (stereo not given)	23.4
NC(=O)C(=O)c1ccccc1NC=O	113
CCN(CC)CCn1c2ccc(OC)cc2c2sc3cc(OC)ccc3c(=O)c21	1.43
O=C(/C=C/c1ccccc1)Nc1ncc(Cc2ccccc2Cl)s1	17.9
Nc1cc(C(=O)NC[C@H]2CN(c3ccc(N4CCC(C(=O)O)CC4)cc3)C(=O)O2)ccc1Cl	95.4
CCCCCCC12CCC(=O)N1CCc1cncn12 (stereo not given)	116
CCCCCCCCCCCCCCCCCCOc1ccccc1CC(=O)OCC[N+](C)(C)C	11.1
CCOC(=O)n1cc(-c2nonc2-c2cn(C(=O)OCC)c3ccc(Br)cc23)c2ccccc21	78.4
CC(C)c1ccc(C(=O)Nc2sc3c(c2C(N)=O)CCC(=O)C3)cc1	0.332
COc1ccc(CNc2c3ccccc3nc3ccccc23)cc1	6.96
C=C(C)[C@@H]1CC[C@]2(C(=O)N3CCOCC3)CC[C@]3(C)[C@H](CC[C@@H]4[C@@]5(C)C/C(=C/c6ccncc6)C(=O)C(C)(C)[C@@H]5CC[C@]43C)[C@@H]12	34.7
O=C(Nn1c2c(sc1=NC1CC1)C(=O)c1ccccc1C2=O)c1cc2ccc1CCc1ccc(cc1)CC2	29.4
CCN(CC)S(=O)(=O)c1ccc(S(=O)(=O)N2CCC[C@@H](C(=O)N3CCN(c4nc(C(C)C)no4)CC3)C2)cc1	31.6
CCC(=O)Oc1ccc(-c2ccccc2)cc1Br	107
COc1cc2ncnc(Nc3ccc(F)c(Cl)c3)c2cc1OCC(=O)N1CCN(c2ccccc2)CC1	84.4

* * *

System: UACC-62 melanoma
testProtocol: NCI-60 one-dose screen, 48 h
recordedConditions: 10 µM unless noted
The panel holds about 83,000 compounds, 20% with a hit somewhere; the sample as a whole holds those more often. Active and inactive are the calls of the source. How the source made its calls: active means growth percent below 10; inactive means the rest.
Outcome codes: Yes (active), No (inactive)

> print(dat)
                                    compound        testtarget  labelvalue
 1  O=C(Nc1cccc(-c2ccc(Cl)c(C(F)(F)F)c2)c1)C1CCN(Cc2cccc3cccnc23)CC1  UACC-62 melanoma          No
 2  c1ccc2cc(C[n+]3ccn(CCCCCCCCCCn4cc[n+](Cc5ccc6ccccc6c5)c4)c3)ccc2c1  UACC-62 melanoma          No
 3  CCCCCC(/C=N\NC(=S)N/N=C/C(=C/c1ccccc1)CCCCC)=C\c1ccccc1  UACC-62 melanoma          No
 4  O=C(/C=C/c1ccco1)Nc1ncc(Cc2cccc(C(F)(F)F)c2)s1  UACC-62 melanoma         Yes
 5                  N#CC(C#N)N=Nc1ccc(Br)cc1  UACC-62 melanoma          No
 6  CCO/C=N/C1=C(C#N)C(c2ccc(Cl)cc2)c2sc3c(F)cccc3c2O1 (stereo not given)  UACC-62 melanoma          No
 7  CCN(CC)S(=O)(=O)c1ccc(S(=O)(=O)N2CCC[C@@H](C(=O)N3CCN(c4nc(C(C)C)no4)CC3)C2)cc1  UACC-62 melanoma          No
 8  COc1ccc(/C=C/C(=O)c2ccc(Nc3ccnc4cc(Cl)ccc34)cc2)cc1  UACC-62 melanoma          No
 9    CSc1nc2ccccc2cc1/C=[N+](\[O-])c1ccccc1  UACC-62 melanoma          No
10  CCN(CC)CCn1c2ccc(OC)cc2c2sc3cc(OC)ccc3c(=O)c21  UACC-62 melanoma          No
11  CCOC(=O)c1cc2c(n1Cc1cc(OC)c(OC)c(OC)c1)-c1nc(N)sc1CCC2  UACC-62 melanoma          No
12  CC(C)=CCC[C@](C)(O)[C@H]1CC[C@]2(C)[C@@H]1CC[C@@H]1[C@@]3(C)C/C(=C/c4ccco4)C(=O)C(C)(C)[C@@H]3CC[C@]12C  UACC-62 melanoma          No
13  Cn1cc(-c2csc(-c3c[nH]c4ccc(Br)cc34)n2)c2ccnc(Cl)c21  UACC-62 melanoma          No
14  CS(=O)(=O)c1ccc(-c2cnn3ccc(-c4cccc(S(=O)(=O)C5CC5)c4)nc23)cc1  UACC-62 melanoma          No
15                   C=CCSc1nnc(NC(=O)CCl)s1  UACC-62 melanoma          No
16  CC(=O)n1nc(C(=O)OC(C)(C)c2ccccc2)c2ccccc21  UACC-62 melanoma          No
17  CCN1C(=O)N(CC)C2C1NN=c1s/c(=C\c3ccccc3F)c(=O)n12 (stereo not given)  UACC-62 melanoma          No
18  CC(O)(c1ccccc1)C(c1ccccc1)C1CCCCN1 (stereo not given)  UACC-62 melanoma          No
19  CC(=O)N1N=C(c2ccc(C(F)(F)F)c(F)c2)CC1c1[nH]c(C)c(C(=O)NCC(F)(F)F)c1C (stereo not given)  UACC-62 melanoma          No
20  CCOC(=O)c1c(C(=O)c2cn(C)c3ccc(Br)cc23)c(-c2cn(C)c3ccc(Br)cc23)n(NC(=O)OC(C)(C)C)c1C  UACC-62 melanoma          No
